Provenance of the data: patent US20230053688A1

Assay: in vitro
Details: human, Rael cells
observed property: viability (%)
Give bare numbers, in %.

Problem: Field request: viability | item: Nc1ncn([C@H]2C[C@H](O)[C@@H](CO)O2)c(=O)n1
Result: 102

====

System: LMP1 expression in Kem I cells
Test: microbe, parasite or virus in culture
Format: cell-based, EBV
Conditions: human gammaherpesvirus 4, 48 h, read-out: Replicate 1-LMP1 Fold Increase, Kem I cells, dose 2.5 uM, 48 hours, LMP1 transcript by in-well qRT-PCR, screen replicate 1
Where a name gives a salt, the structure may show the parent alone.
observed property: fold induction at 2.5 µM
One number for each entry.

Solved cases below.
>>> print(df.to_string())
                                   compound  result
0  CN(C)CCOc1ccc(/C(=C(/CCCl)c2ccccc2)c2ccccc2)cc1 [Toremifene Citrate]    0.55
1  Cc1cc(OCCCS(C)(=O)=O)cc(C)c1-c1cccc(COc2ccc3c(c2)OC[C@H]3CC(=O)O)c1    0.55
2  O=c1ncn2nc(Sc3ccc(F)cc3F)ccc2c1-c1c(Cl)cccc1Cl    0.75

Here are 6 compounds. What values of fold induction at 2.5 µM were reported for them?
1. CCCSc1nc(N[C@@H]2C[C@H]2c2ccc(F)c(F)c2)c2nnn([C@@H]3C[C@H](OCCO)[C@@H](O)[C@H]3O)c2n1
2. Cc1c(Cl)cccc1Nc1ccccc1C(=O)O
3. O=C(O[C@H]1C[C@H]2CC[C@@H](C1)[N+]21CCCC1)C(O)(c1ccccc1)c1ccccc1 [Trospium chloride]
4. O=S(=O)(c1ccccc1)N(CC(F)(F)F)c1ccc(C(O)(C(F)(F)F)C(F)(F)F)cc1
5. O=c1oc2cc(O)ccc2s1
6. C[C@@H](c1ncncc1F)[C@](O)(Cn1cncn1)c1ccc(F)cc1F

Result:
[0.61, 0.11, 0.33, 0.41, 0.7, 1.02]

Here are 5 compounds. What values of fold induction at 2.5 µM were reported for them?
1. Cn1c(=O)cc(N2CCC[C@@H](N)C2)n(Cc2cc(F)ccc2C#N)c1=O
2. CCOC(=O)N1c2ccc(C(F)(F)F)cc2[C@@H](N(Cc2cc(C(F)(F)F)cc(C(F)(F)F)c2)C(=O)OC)C[C@H]1CC
3. CNCc1ccc(-c2cc(-c3nc(-c4ccc(S(=O)(=O)C(C)C)cc4)cnc3N)on2)cc1
4. Cc1ccccc1C(=O)Nc1ccc(C(=O)N2CCCC(O)c3cc(Cl)ccc32)c(C)c1 (centres unmarked)
5. CCC(COC(=O)c1cc(OC)c(OC)c(OC)c1)(c1ccccc1)N(C)C (centres unmarked)

Result:
0.96
0.4
3.28
1.11
2.11
